Molecular target: T1, aPKC KD-PBM (Drosophila, UniProt A1Z9X0 259-606)
T1 construct: From pBH; also called his aPKC kinase domain-PBM; aPKC kinase domain–PBM; source: E. coli BL21 (DE3), his-purified (Ni-NTA) partially under denaturing conditions (8 M urea)
T1 sequence (looked up): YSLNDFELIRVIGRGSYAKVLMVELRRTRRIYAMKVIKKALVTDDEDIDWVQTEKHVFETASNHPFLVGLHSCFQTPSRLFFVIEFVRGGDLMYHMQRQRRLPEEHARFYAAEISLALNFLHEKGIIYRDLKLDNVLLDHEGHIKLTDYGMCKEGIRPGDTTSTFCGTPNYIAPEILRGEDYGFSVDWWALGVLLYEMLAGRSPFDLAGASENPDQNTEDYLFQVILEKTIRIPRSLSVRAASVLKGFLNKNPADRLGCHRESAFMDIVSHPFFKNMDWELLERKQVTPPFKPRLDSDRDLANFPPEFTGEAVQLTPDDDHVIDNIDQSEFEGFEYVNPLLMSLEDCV
Assay: supernatant depletion assay; GST-fused protein on glutathione agarose resin (solid phase, 'ligand'); soluble protein ('receptor') left in the supernatant at equilibrium quantified on a Coomassie gel; 1 h at 20 °C; 10 mM Hepes pH 7.5, 100 mM NaCl, 1 mM DTT, 200 μM ATP, 5 mM MgCl2, 0.1% Tween-20; single-site equation; 'apparent' for Par-3 variants that could bind more than one Par complex; ATP replaced with ADP in one …
Conditions: both partners purified

{"BINDER": "GST-Par-3 PDZ3 (domain or fragment, Drosophila, UniProt O96782 616-741, looked up, Par-3 (Bazooka), Drosophila, residues 616-741; From pGEX; also called GST fused Par-3 PDZ3) HSREELTLHIPVHDTEKAGLGVSVKGKTCSNLNASGSSASSGSNGLMKHDGDLGIFVKNVIHGGAASRDGRLRMNDQLLSVNGVSLRGQNNAEAMETLRRAMVNTPGKHPGTITLLVGRKILRSAS", "binding result": "binds"}
{"BINDER": "GST-Par-3 PDZ1-2 (domain or fragment, Drosophila, UniProt O96782 309-533, looked up, Par-3 (Bazooka), Drosophila, residues 309-533; From pGEX) DGEMLLIINEYGSPLGLTALPDKEHGGGLLVQHVEPGSRAERGQLRRDDRILEINGIKLIGLTESQVQEQLRRALESSELRVRVLRGDRNRRQQRDSKVADMVEVATVSPTRKPHAAPVGTSLQVANTRKLGRKIQIMLKKGPNGLGFSVTTRDNPAGAHCPIYIKNILPRGAAIEDGRLKPGDRLLEVDGTPMTGKTQTDVVAILRGMPAGATVRIVVSRQQEL", "binding result": "binds"}
{"BINDER": "GST-Par-3 PDZ2-3 (domain or fragment, Drosophila, UniProt O96782 444-741, looked up, Par-3 (Bazooka), Drosophila, residues 444-741; From pGEX) QIMLKKGPNGLGFSVTTRDNPAGAHCPIYIKNILPRGAAIEDGRLKPGDRLLEVDGTPMTGKTQTDVVAILRGMPAGATVRIVVSRQQELAEQADQPAEKSAGVAVAPSVAPPAVPAAAAPAPPIPVQKSSSARSLFTHQQQSQLNESQHFIDAGSESAASNDSLPPSSNSWHSREELTLHIPVHDTEKAGLGVSVKGKTCSNLNASGSSASSGSNGLMKHDGDLGIFVKNVIHGGAASRDGRLRMNDQLLSVNGVSLRGQNNAEAMETLRRAMVNTPGKHPGTITLLVGRKILRSAS", "binding result": "binds"}
{"BINDER": "GST-Par-3 BR-PDZ2-3 (domain or fragment, Drosophila, UniProt O96782 426-741, looked up, Par-3 (Bazooka), Drosophila, residues 426-741; From pGEX) PVGTSLQVANTRKLGRKIQIMLKKGPNGLGFSVTTRDNPAGAHCPIYIKNILPRGAAIEDGRLKPGDRLLEVDGTPMTGKTQTDVVAILRGMPAGATVRIVVSRQQELAEQADQPAEKSAGVAVAPSVAPPAVPAAAAPAPPIPVQKSSSARSLFTHQQQSQLNESQHFIDAGSESAASNDSLPPSSNSWHSREELTLHIPVHDTEKAGLGVSVKGKTCSNLNASGSSASSGSNGLMKHDGDLGIFVKNVIHGGAASRDGRLRMNDQLLSVNGVSLRGQNNAEAMETLRRAMVNTPGKHPGTITLLVGRKILRSAS", "binding result": "binds"}
{"BINDER": "GST-Par-3 BR-PDZ2 (domain or fragment, Drosophila, UniProt O96782 426-533, looked up, Par-3 (Bazooka), Drosophila, residues 426-533 (basic region and PDZ2); From pGEX) PVGTSLQVANTRKLGRKIQIMLKKGPNGLGFSVTTRDNPAGAHCPIYIKNILPRGAAIEDGRLKPGDRLLEVDGTPMTGKTQTDVVAILRGMPAGATVRIVVSRQQEL", "binding result": "binds"}
{"BINDER": "GST-Par-3 PDZ2 (domain or fragment, Drosophila, UniProt O96782 444-533, looked up, Par-3 (Bazooka), Drosophila, residues 444-533; From pGEX; also called GST fused Par-3 PDZ2) QIMLKKGPNGLGFSVTTRDNPAGAHCPIYIKNILPRGAAIEDGRLKPGDRLLEVDGTPMTGKTQTDVVAILRGMPAGATVRIVVSRQQEL", "binding result": "binds"}
